Source of measurements: patent US20110251379A1

For each record, write down the corresponding IC50.
Test system: Aβ-40
Assay: MSD Human (6E10) Ab 3-PLEX elisa, conditioned media of 2B7 cells: Aβ-40
Assay type: cell-based
Details: Homo sapiens, Aβ-40 (superscript b); read-out: 50% reduction value

Exam item: Please report the recorded IC50 for CC(C)CO[C@@H](C1C[C@@H](C)[C@H]2C(O1)[C@H](O)[C@@]1(C)C3CC[C@H]4C(C)(C)C(OC(=O)NC5CNC5)CC[C@@]45C[C@@]35CC[C@]21C)C(C)(C)O (stereo partly shown) .
Marked response: 1 to 10 µM

Exam item: Please report the recorded IC50 for CO[C@H](C(C)C)C1C[C@@H](C)[C@H]2C(O1)[C@H](O)[C@@]1(C)C3CC[C@H]4C(C)(C)[C@@H](O)CC[C@@]45C[C@@]35CC[C@]21C (stereo partly shown) .
Marked response: > 10 µM

Exam item: Please report the recorded IC50 for CCO[C@H](C(C)C)C1C[C@@H](C)[C@H]2C(O1)[C@H](O)[C@@]1(C)[C@@H]3CC[C@H]4C(C)(C)C(O[C@H]5CNCCO5)CC[C@@]45C[C@@]35CC[C@]21C (stereo partly shown) .
Marked response: 1 to 10 µM

Exam item: Please report the recorded IC50 for CCO[C@@H](C1C[C@@H](C)[C@H]2C(O1)[C@H](O)[C@@]1(C)C3CC[C@H]4C(C)(C)C(OC(=O)N5CC[C@@H](C(=O)O)C5)CC[C@@]45C[C@@]35CC[C@]21C)C(C)(C)O (stereo partly shown) .
Marked response: > 10 µM

Exam item: Please report the recorded IC50 for CCO[C@H](C(C)C)C1C[C@@H](C)[C@H]2C(O1)[C@H](O)[C@@]1(C)[C@@H]3CC[C@H]4C(C)(C)C(O)CC[C@@]45C[C@@]35CC[C@]21C (stereo partly shown) .
Marked response: 1 to 10 µM

Exam item: Please report the recorded IC50 for CNC(=O)O[C@H](C(C)C)C1C[C@@H](C)[C@H]2C(O1)[C@H](O)[C@@]1(C)C3CC[C@H]4C(C)(C)[C@@H](O[C@H]5CNCCO5)CC[C@@]45C[C@@]35CC[C@]21C (stereo partly shown) .
Marked response: 1 to 10 µM

Exam item: Please report the recorded IC50 for CCO[C@@H](C1C[C@@H](C)[C@H]2C(O1)[C@H](O)[C@@]1(C)C3CC[C@H]4C(C)(C)C(OC5CN(Cc6ccccc6)CCO5)CC[C@@]45C[C@@]35CC[C@]21C)C(C)(C)O (stereo partly shown) [drawing 1282] .
Marked response: 1 to 10 µM

Exam item: Please report the recorded IC50 for CC(=O)N1CCN(C(=O)OC2CC[C@]34C[C@]35CC[C@]3(C)[C@@H]6C(OC([C@H](OC(=O)N7CCC7)C(C)C)C[C@H]6C)[C@H](O)[C@@]3(C)C5CC[C@H]4C2(C)C)CC1 (stereo partly shown) .
Marked response: 1 to 10 µM

Exam item: Please report the recorded IC50 for CC(=O)O[C@@H]([C@H]1C[C@@H](C)C2C(O1)[C@H](O)[C@@]1(C)[C@@H]3CC[C@H]4C(C)(C)[C@@H](OC5CN(CC(=O)N(C)C)CCO5)CC[C@@]45C[C@@]35CC[C@]21C)C(C)(C)O (stereo partly shown) [drawing 1199] .
Marked response: 1 to 10 µM

Exam item: Please report the recorded IC50 for CC(=O)O[C@@H]([C@H]1C[C@@H](C)[C@H]2[C@H](O1)C(=O)[C@@]1(C)[C@@H]3CC[C@H]4C(C)(C)[C@@H](O[C@H]5CN(CC(N)=O)CCO5)CC[C@@]45C[C@@]35CC[C@]21C)C(C)(C)O [drawing 1202] .
Marked response: < 1 µM

* * *

Test system: Aβ-38
Experiment: MSD Human (6E10) Ab 3-PLEX elisa, conditioned media of 2B7 cells: Aβ-38
Assay type: cell-based
Details: Homo sapiens; Aβ-38 (superscript a); read-out: 50% reduction value
pIC50: −log10 of the molar value.
For each record, write down the corresponding pIC50.

Exam item: Please report the recorded pIC50 for C[C@@H]1CC(COc2ncccn2)OC2C1[C@@]1(C)CC[C@@]34C[C@@]35CC[C@H](O[C@H]3CN(C6COC6)CCO3)C(C)(C)[C@@H]5CCC4[C@]1(C)[C@H]2O (stereo partly shown) .
Marked response: 5.00 to 6.00

Exam item: Please report the recorded pIC50 for CO[C@@H]([C@H]1C[C@@H](C)[C@H]2[C@H](O1)[C@H](O)[C@@]1(C)C3CC[C@H]4C(C)(C)[C@@H](O[C@H]5CN(C6COC6)CCO5)CC[C@@]45C[C@@]35CC[C@]21C)C(C)(C)O (stereo partly shown) .
Marked response: > 6.00

Exam item: Please report the recorded pIC50 for C[C@@H]1CC([C@@H](C(C)(C)O)S(C)(=O)=O)OC2[C@H]1[C@@]1(C)CC[C@@]34C[C@@]35CCC(O)C(C)(C)[C@@H]5CCC4[C@]1(C)[C@H]2O (stereo partly shown) .
Marked response: 5.00 to 6.00

Exam item: Please report the recorded pIC50 for CNC(=O)OC(C)(C)[C@@H](O)[C@H]1C[C@@H](C)[C@H]2[C@H](O1)[C@H](O)[C@@]1(C)C3CC[C@H]4C(C)(C)[C@@H](O)CC[C@@]45C[C@@]35CC[C@]21C (stereo partly shown) .
Marked response: 5.00 to 6.00

Exam item: Please report the recorded pIC50 for CO[C@@H](C1C[C@@H](C)[C@H]2C(O1)[C@H](O)[C@@]1(C)C3CC[C@H]4C(C)(C)[C@@H](O)CC[C@@]45C[C@@]35CC[C@]21C)C(C)(C)O (stereo partly shown) .
Marked response: > 6.00

Exam item: Please report the recorded pIC50 for C[C@@H]1CC(CN(C)C(=O)N(C)C)OC2[C@H]1[C@@]1(C)CC[C@@]34C[C@@]35CC[C@H](O)C(C)(C)[C@@H]5CCC4[C@]1(C)[C@H]2O (stereo partly shown) .
Marked response: 5.00 to 6.00

Exam item: Please report the recorded pIC50 for CCO[C@@H](C1C[C@@H](C)[C@H]2C(O1)[C@H](O)[C@@]1(C)C3CC[C@H]4C(C)(C)[C@@H](O)CC[C@@]45C[C@@]35CC[C@]21C)C(C)(C)O (stereo partly shown) .
Marked response: > 6.00

Exam item: Please report the recorded pIC50 for CCO[C@@H]([C@H]1C[C@@H](C)[C@H]2[C@H](O1)[C@H](O)[C@@]1(C)[C@@H]3CC[C@H]4C(C)(C)[C@@H](OC5CN(C(=O)C(C)C)CCO5)CC[C@@]45C[C@@]35CC[C@]21C)C(C)(C)O (stereo partly shown) .
Marked response: > 6.00

Exam item: Please report the recorded pIC50 for CC(=O)O[C@@H]([C@H]1C[C@@H](C)C2C(O1)[C@H](O)[C@@]1(C)[C@@H]3CC[C@H]4C(C)(C)[C@@H](OC5CN(CC(=O)N(C)C)CCO5)CC[C@@]45C[C@@]35CC[C@]21C)C(C)(C)O (stereo partly shown) [drawing 1199] .
Marked response: > 6.00

Exam item: Please report the recorded pIC50 for COC(=O)NCC1C[C@@H](C)[C@H]2C(O1)[C@H](O)[C@@]1(C)C3CC[C@H]4C(C)(C)[C@@H](O)CC[C@@]45C[C@@]35CC[C@]21C (stereo partly shown) .
Marked response: < 5.00

* * *

For each record, write down the corresponding pIC50.
System: Aβ-40
Assay: MSD Human (6E10) Ab 3-PLEX elisa, conditioned media of 2B7 cells: Aβ-40
Format: cell-based
Details: Homo sapiens, Aβ-40 (superscript b); read-out: 50% reduction value
pIC50: −log10 of the molar value.

Exam item: Please report the recorded pIC50 for CC(C)C(=O)N1CCO[C@@H](O[C@H]2CC[C@]34C[C@]35CC[C@]3(C)C6C(OC(CN(C)C(N)=O)C[C@H]6C)[C@H](O)[C@@]3(C)C5CC[C@H]4C2(C)C)C1 (some centres unmarked) .
Marked response: < 5.00

Exam item: Please report the recorded pIC50 for CO[C@@H](C1C[C@@H](C)[C@H]2C(O1)[C@H](O)[C@@]1(C)C3CC[C@H]4C(C)(C)C(OC(=O)N5CCC5)CC[C@@]45C[C@@]35CC[C@]21C)C(C)(C)O (some centres unmarked) .
Marked response: < 5.00

Exam item: Please report the recorded pIC50 for CCO[C@@H](C1C[C@@H](C)[C@H]2C(O1)[C@H](O)[C@@]1(C)C3CC[C@H]4C(C)(C)C(O[C@H]5CN(C6CCOC6)CCO5)CC[C@@]45C[C@@]35CC[C@]21C)C(C)(C)O (some centres unmarked) .
Marked response: 5.00 to 6.00

Exam item: Please report the recorded pIC50 for CCS[C@@H](C1C[C@@H](C)C2C(O1)[C@H](O)[C@@]1(C)C3CC[C@H]4C(C)(C)C(O[C@H]5CN(C6COC6)CCO5)CC[C@@]45C[C@@]35CC[C@]21C)C(C)(C)O (some centres unmarked) .
Marked response: < 5.00

Exam item: Please report the recorded pIC50 for CC(C)C(=O)N1CCOC(OC2CC[C@]34C[C@]35CC[C@]3(C)[C@@H]6C(OC([C@H](OC(=O)N7CCC7)C(C)C)C[C@H]6C)[C@H](O)[C@@]3(C)C5CC[C@H]4C2(C)C)C1 (some centres unmarked) .
Marked response: 5.00 to 6.00
